Below: molecules with IC50 recorded for Serine/threonine-protein kinase mTOR (Homo sapiens, UniProt P42345) in separate published works.

CN(C)C(=O)c1ccc(NC(=O)Nc2ccc(-c3nc(N4CCOCC4)c4ccc(-c5ccc(C(C)(C)O)o5)cc4n3)c(F)c2)cc1 : 50 to 200 nM
Cc1ccccc1Oc1cc(-c2cnc(N)nc2)nc(N2CCOCC2)c1 : 370 nM
COc1cc(-c2cccc(NS(=O)(=O)c3c(F)cccc3F)c2F)cc2c(N3CCOCC3)nc(-c3cnc4[nH]ccc4c3)nc12 : 100 to 1000 nM
Cc1cn(C2CCN(C(=O)c3nnc[nH]3)CC2)c2nc3c(-c4ccc(-c5ncc[nH]5)nc4)cnn3c(N)c12 : < 10 nM
Cc1nn(C)cc1-n1c(=O)n(C)c2cnc3ccc(-c4cncc(S(C)(=O)=O)c4)cc3c21 : 121 nM

Query :: Answer with IC50 of "Cc1nn(C)cc1-n1c(=O)n(C)c2cnc3ccc(-c4cncc(OC(F)F)c4)cc3c21" measured for Serine/threonine-protein kinase mTOR (Homo sapiens, UniProt P42345).
Result :: < 3 nM

Query :: Answer with IC50 of "COc1cc(-c2cccc(NS(=O)(=O)CC(C)C)c2F)cc2c(N3CCOCC3)nc(-c3cnc(N)nc3)nc12" measured for Serine/threonine-protein kinase mTOR (Homo sapiens, UniProt P42345).
Result :: 100 to 1000 nM
